# Test system: 616215-338-R-J1-PDC complex spheroid growth, % test/control
# experiment: Anticancer human tumor 616215-338-R-J1-PDC patient-derived colon adenocarcinoma cell line growth inhibition [Asc]
# condition set: second compound 0.03 µM; first compound 1 µM; stronger effect = lower value

compound	viability, T/C
C=C(F)C(=O)N1CCN(c2nc(OCC3CCCN3C)nc3c2CCN(c2cccc4cccc(Cl)c24)C3)CC1CC#N (centres undefined) + CCN1C(C(=O)NC23CCC(C(=O)O)(CC2)CC3)C(c2cccc(Cl)c2F)C2(C(=O)Nc3cc(Cl)ccc32)C12CCCCC2	106%
O=C(c1cc(Cc2n[nH]c(=O)c3ccccc23)ccc1F)N1CCN(C(=O)C2CC2)CC1 + CCN1C(C(=O)NC23CCC(C(=O)O)(CC2)CC3)C(c2cccc(Cl)c2F)C2(C(=O)Nc3cc(Cl)ccc32)C12CCCCC2	99.8%
CCN1CCN(Cc2ccc(Nc3ncc(F)c(-c4cc(F)c5nc(C)n(C(C)C)c5c4)n3)nc2)CC1 + CCN1C(C(=O)NC23CCC(C(=O)O)(CC2)CC3)C(c2cccc(Cl)c2F)C2(C(=O)Nc3cc(Cl)ccc32)C12CCCCC2	116%
COc1c(OCCCN2CCOCC2)ccc2c3n(c(=NC(=O)c4cnc(N)nc4)nc12)CCN3 + CCN1C(C(=O)NC23CCC(C(=O)O)(CC2)CC3)C(c2cccc(Cl)c2F)C2(C(=O)Nc3cc(Cl)ccc32)C12CCCCC2	13.1%

---

Listed below: viability, T/C values for each entry.
# Test system: 616215-338-R-J1-PDC complex spheroid growth, % test/control
# experiment: Anticancer human tumor 616215-338-R-J1-PDC cell line growth inhibition [Asc];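 further: spheroids exposed to agents for seven days before readout; 100% = DMSO vehicle control viability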
# condition set: second compound 0.00316 µM; first compound 0.316 µM; stronger effect = lower value
recorded endpoint: viability, T/C

molecule	experimental target	measured
C=C(F)C(=O)N1CCN(c2nc(OCC3CCCN3C)nc3c2CCN(c2cccc4cccc(Cl)c24)C3)CC1CC#N (centres undefined) + CNC(C)C(=O)NC1CN(S(=O)(=O)c2cccc(S(=O)(=O)N3CCC4CCC(C(=O)NC(c5ccccc5)c5ccccc5)N4C(=O)C(NC(=O)C(C)NC)C3)c2)CCC2CCC(C(=O)NC(c3ccccc3)c3ccccc3)N2C1=O	616215-338-R-J1-PDC complex spheroid growth, % test/control	43.7%
C=CC(=O)N1CCN(c2nc(=O)n(-c3c(C)ccnc3C(C)C)c3nc(-c4c(O)cccc4F)c(F)cc23)C(C)C1 (centres undefined) + CNC(C)C(=O)NC1CN(S(=O)(=O)c2cccc(S(=O)(=O)N3CCC4CCC(C(=O)NC(c5ccccc5)c5ccccc5)N4C(=O)C(NC(=O)C(C)NC)C3)c2)CCC2CCC(C(=O)NC(c3ccccc3)c3ccccc3)N2C1=O	616215-338-R-J1-PDC complex spheroid growth, % test/control	88%
COc1c(OCCCN2CCOCC2)ccc2c3n(c(=NC(=O)c4cnc(N)nc4)nc12)CCN3 + CNC(C)C(=O)NC1CN(S(=O)(=O)c2cccc(S(=O)(=O)N3CCC4CCC(C(=O)NC(c5ccccc5)c5ccccc5)N4C(=O)C(NC(=O)C(C)NC)C3)c2)CCC2CCC(C(=O)NC(c3ccccc3)c3ccccc3)N2C1=O	616215-338-R-J1-PDC complex spheroid growth, % test/control	14.9%
CCN1CCN(Cc2ccc(Nc3ncc(F)c(-c4cc(F)c5nc(C)n(C(C)C)c5c4)n3)nc2)CC1 + CNC(C)C(=O)NC1CN(S(=O)(=O)c2cccc(S(=O)(=O)N3CCC4CCC(C(=O)NC(c5ccccc5)c5ccccc5)N4C(=O)C(NC(=O)C(C)NC)C3)c2)CCC2CCC(C(=O)NC(c3ccccc3)c3ccccc3)N2C1=O	616215-338-R-J1-PDC complex spheroid growth, % test/control	41.5%
